# system: Human glucagon receptor (human, UniProt P47871 26-477)
# assayProcedure: cell-based or functional assay
Where no end group is shown, it is not given here. [ ]: non-standard residue; d: D form. αMePhe(2-F) = C[C@](N)(Cc1ccccc1F)C(=O)O; Aib = CC(C)(N)C(=O)O
Rule: y for cAMP production with saturated glucagon peptide; test compound 1 nM not less than 5 pmol/ml/µg prt, n for anything less.

Prompt line: Confirm if cAMP production with saturated glucagon peptide; test compound 1 nM reported for the binder HAQGT[αMePhe(2-F)]TSD[Bip(OMe)][Bip(2CF3)] [Seq. ID. No. 28: HAQGT-(α-Me-2F-Phe)-TSD-Bip(OMe)-Bip(2CF3)] is 5 pmol/ml/µg prt or above.
Response line: n

Prompt line: How about H[Aib]QGTFTSD[Bip(OMe)][Bip(2Me)] [Seq. ID. No. 13: H-Aib-QGTFTSD-Bip(OMe)-Bip(2Me)] ?
Response line: y

Prompt line: Now consider HAQGT[αMePhe(2-F)]TSD[Bip(OMe)][Bip(2F)] [Seq. ID. No. 27: HAQGT-(α-Me-2F-Phe)-TSD-Bip(OMe)-Bip(2F)] .
Response line: y

Prompt line: What would you report for HXQGTXTSDXX (Aib at 2; α-Me-2F-Phe at 6; Bip(OMe) at 10; Bip(2F) at 11) [Seq. ID. No. 31: H-Aib-QGT-(α-Me-2F-Phe)-TSD-Bip(OMe)-Bip(2F)] ?
Response line: y

Prompt line: And HXQGTXTSDXX (Aib at 2; α-Me-2F-Phe at 6; Bip(OMe) at 10; Bip(Pyr) at 11) [Seq. ID. No. 30: H-Aib-QGT-(α-Me-2F-Phe)-TSD-Bip(OMe)-Bip(Pyr)] ?
Response line: y

Prompt line: Moving on to the next binder: H[Aib]QGTFTSD[Bip(OMe)][Bip(2F)] [Seq. ID. No. 15: H-Aib-QGTFTSD-Bip(OMe)-Bip(2F)]
Response line: y

Prompt line: Please give the result for HSQGTFTSD[Bip(OMe)][Bip(2Me)]-NH2 [Seq. ID. No. 5: HSQGTFTSD-Bip(OMe)-Bip(2Me)] too.
Response line: y

Prompt line: Cool, now HSQGTXTSDXX (α-Me-2F-Phe at 6; Bip(OMe) at 10; Bip(2CF3) at 11) [Seq. ID. No. 24: HSQGT-(α-Me-2F-Phe)-TSD-Bip(OMe)-Bip(2CF3)]
Response line: n

Prompt line: Again, but for HSQGTFTSD[Bip(OMe)][Bip(2CF3)] (not fully specified (C-terminus); printed as HSQGTFTSD-Bip(OMe)-Bip(2CF3)) [Seq. ID. No. 8: HSQGTFTSD-Bip(OMe)-Bip(2CF3)]
Response line: n

Prompt line: Next binder up: HAQGTFTSD[Bip(OMe)][Bip(Pyr)] [Seq. ID. No. 10: HAQGTFTSD-Bip(OMe)-Bip(Pyr)]
Response line: y
